experiment: physchem; conditions: aqueous buffer, aqueous solubility in PBS
EXPERIMENTAL_READOUT: solubility

Recorded solubility of CCOC(=O)N1c2ccc(C(F)(F)F)cc2[C@@H](N(Cc2cc(C(F)(F)F)cc(C(F)(F)F)c2)C(=O)OC)C[C@H]1CC , please.
< 0.04 µg/mL

====

test: in vivo oral dosing of OPC, plasma concentration; settings: dog, beagle dogs, Fed, oral OPC 90 mgA Drug 1
EXPERIMENTAL_READOUT: Tmax (h)
Your answer should be a plain number; it is taken to be in h.

Recorded Tmax of CCOC(=O)N1c2ccc(C(F)(F)F)cc2[C@@H](N(Cc2cc(C(F)(F)F)cc(C(F)(F)F)c2)C(=O)OC)C[C@H]1CC , please.
2.3

====

assay: in vivo oral dosing of OPC, plasma concentration; conditions: dog, beagle dogs, Fed, oral OPC 90 mgA Drug 1, read-out: Cmax,24
EXPERIMENTAL_READOUT: Cmax (µg/mL)
Your answer should be a plain number; it is taken to be in µg/mL.

Recorded Cmax of CCOC(=O)N1c2ccc(C(F)(F)F)cc2[C@@H](N(Cc2cc(C(F)(F)F)cc(C(F)(F)F)c2)C(=O)OC)C[C@H]1CC , please.
191

====

test: physchem; details: organic solvent or mixture, solubility in organic fluid
Entries annotated with measured solubility

Recorded solubility of CCOC(=O)N1c2ccc(C(F)(F)F)cc2[C@@H](N(Cc2cc(C(F)(F)F)cc(C(F)(F)F)c2)C(=O)OC)C[C@H]1CC , please.
~25 mg/mL

Kindly consider the entry below.
Recorded solubility of CC[C@@H]1C[C@H](N(Cc2cc(C(F)(F)F)cc(C(F)(F)F)c2)C(C)=O)c2cc(C(F)(F)F)ccc2N1C(=O)OC(C)C , please.
> 25 mg/mL
